# maps each entry to its pKi
# target_desc: Delta-type opioid receptor (Rattus norvegicus, UniProt P33533)
# Sequence (P33533 whole entry): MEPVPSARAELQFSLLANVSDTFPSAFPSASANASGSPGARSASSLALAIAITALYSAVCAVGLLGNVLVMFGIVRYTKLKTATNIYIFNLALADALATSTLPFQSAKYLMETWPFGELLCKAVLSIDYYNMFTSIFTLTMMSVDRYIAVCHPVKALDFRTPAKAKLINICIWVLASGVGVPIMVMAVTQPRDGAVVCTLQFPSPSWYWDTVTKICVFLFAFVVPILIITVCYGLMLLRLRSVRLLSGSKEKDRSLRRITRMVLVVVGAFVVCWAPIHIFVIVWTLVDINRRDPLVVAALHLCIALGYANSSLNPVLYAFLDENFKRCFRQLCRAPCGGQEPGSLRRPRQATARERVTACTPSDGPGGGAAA
# measurement_protocol: Binding affinity on HEK293 cells transiently transfected with plasmids encoding the rat Opioid receptor delta 1
# pKi is unitless: minus log10 of the molar concentration; print number only

Example results:
• Oc1ccc2c3c1O[C@H]1c4[nH]c5c(c4C[C@@]4(O)[C@@H](C2)N(CC2CC2)CC[C@]314)C[C@@]1(O)[C@H]2Cc3ccc(O)c4c3[C@@]1(CCN2CC1CC1)[C@H]5O4 = 7.38
• C[N+](C)(C)Cc1ccc2[nH]c3c(c2c1)C[C@@]1(O)C2Cc4ccc(O)c5c4[C@@]1(CCN2CC1CC1)[C@H]3O5 = 7.11
• N=C(N)Nc1ccc2[nH]c3c(c2c1)C[C@@]1(O)[C@H]2Cc4ccc(O)c5c4[C@@]1(CCN2CC1CC1)[C@H]3O5 = 7.34
• N=C(N)NCc1ccc2[nH]c3c(c2c1)C[C@@]1(O)[C@H]2Cc4ccc(O)c5c4[C@@]1(CCN2CC1CC1)[C@H]3O5 = 7.51
• CN(C)Cc1ccc2[nH]c3c(c2c1)C[C@@]1(O)C2Cc4ccc(O)c5c4[C@@]1(CCN2CC1CC1)[C@H]3O5 = 7.80

// below: pKi requested for another compound
Query string: Please report pKi for the following compound: N=C(N)N=C(N)Nc1ccc2[nH]c3c(c2c1)C[C@@]1(O)C2Cc4ccc(O)c5c4[C@@]1(CCN2CC1CC1)[C@H]3O5
Result string: 6.97

---

# target_desc: Opioid receptors; mu & kappa (Homo sapiens) (UniProt P41145+P35372)
# Sequence (P35372 whole entry, looked up): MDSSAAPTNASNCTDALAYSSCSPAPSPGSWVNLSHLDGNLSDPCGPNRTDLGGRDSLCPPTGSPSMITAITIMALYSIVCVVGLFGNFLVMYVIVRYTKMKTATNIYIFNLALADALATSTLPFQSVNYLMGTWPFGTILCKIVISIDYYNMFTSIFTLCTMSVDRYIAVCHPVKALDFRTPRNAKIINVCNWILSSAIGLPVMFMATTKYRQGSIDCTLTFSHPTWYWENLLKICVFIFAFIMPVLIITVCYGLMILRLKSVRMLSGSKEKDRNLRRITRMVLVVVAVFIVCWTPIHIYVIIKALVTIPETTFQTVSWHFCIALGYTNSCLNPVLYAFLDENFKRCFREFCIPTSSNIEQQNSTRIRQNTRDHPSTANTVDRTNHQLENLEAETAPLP
# Sequence (P41145 whole entry, looked up): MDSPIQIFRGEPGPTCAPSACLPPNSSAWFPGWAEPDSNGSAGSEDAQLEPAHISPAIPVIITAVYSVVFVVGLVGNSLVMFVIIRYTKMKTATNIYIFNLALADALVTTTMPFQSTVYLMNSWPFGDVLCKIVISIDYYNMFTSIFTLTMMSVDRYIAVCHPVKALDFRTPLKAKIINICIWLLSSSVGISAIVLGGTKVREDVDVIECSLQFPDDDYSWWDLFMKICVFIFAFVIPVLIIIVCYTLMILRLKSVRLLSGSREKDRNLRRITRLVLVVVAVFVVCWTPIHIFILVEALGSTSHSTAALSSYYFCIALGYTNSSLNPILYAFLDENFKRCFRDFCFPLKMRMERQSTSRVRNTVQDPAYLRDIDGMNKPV
# measurement_protocol: Selectivity ratio, ratio of Ke value of Kappa to mu opioid receptor
# Type: protein assay
assay_readout: Ratio
The answer should be written as a number, with no unit following it.

* CN1CC[C@]23c4c5ccc(O)c4O[C@H]2c2[nH]c4ccc(NC(=N)N)cc4c2C[C@@]3(O)C1C5 | 6.3
* C[N+](C)(C)c1ccc2[nH]c3c(c2c1)C[C@@]1(O)C2Cc4ccc(O)c5c4[C@@]1(CCN2CC1CC1)[C@H]3O5 | 13
* CN(C)CCc1ccc2[nH]c3c(c2c1)C[C@@]1(O)C2Cc4ccc(O)c5c4[C@@]1(CCN2CC1CC1)[C@H]3O5 | 13

Query string: Could you please provide reported Ratio for NCCc1ccc2[nH]c3c(c2c1)C[C@@]1(O)C2Cc4ccc(O)c5c4[C@@]1(CCN2CC1CC1)[C@H]3O5 ? Thanks!
Result string: 15

Query string: Retrieve Ratio measured for Nc1ccc2[nH]c3c(c2c1)C[C@@]1(O)C2Cc4ccc(O)c5c4[C@@]1(CCN2CC1CC1)[C@H]3O5 and print it.
Result string: 1.5

---

# target_desc: Mu-type opioid receptor (Rattus norvegicus, UniProt P33535)
# Sequence (P33535 whole entry): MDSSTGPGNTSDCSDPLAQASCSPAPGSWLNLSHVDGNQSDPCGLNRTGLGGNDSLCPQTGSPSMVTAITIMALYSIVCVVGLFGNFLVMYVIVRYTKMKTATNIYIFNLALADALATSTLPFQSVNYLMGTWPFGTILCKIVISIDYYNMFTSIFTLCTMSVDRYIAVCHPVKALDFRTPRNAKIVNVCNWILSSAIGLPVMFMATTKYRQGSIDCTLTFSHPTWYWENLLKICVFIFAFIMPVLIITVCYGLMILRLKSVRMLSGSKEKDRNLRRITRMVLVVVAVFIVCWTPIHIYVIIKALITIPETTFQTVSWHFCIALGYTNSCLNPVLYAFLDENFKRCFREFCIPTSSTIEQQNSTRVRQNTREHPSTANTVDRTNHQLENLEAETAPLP
assay_readout: pKi
FYI, pKi means -log10 of a concentration in mol per litre.

Query string: Given the molecule N=C(N)N=C(N)Nc1ccc2[nH]c3c(c2c1)C[C@@]1(O)C2Cc4ccc(O)c5c4[C@@]1(CCN2CC1CC1)[C@H]3O5 , write its reported pKi.
Result string: 7.67

Query string: Report pKi, nothing else, for this molecule: N=C(N)Nc1ccc2[nH]c3c(c2c1)C[C@@]1(O)[C@H]2Cc4ccc(O)c5c4[C@@]1(CCN2CC1CC1)[C@H]3O5 [GUANIDINONALTRINDOLE]
Result string: 7.65

Query string: Name the recorded pKi of the item C[N+](C)(C)Cc1ccc2[nH]c3c(c2c1)C[C@@]1(O)C2Cc4ccc(O)c5c4[C@@]1(CCN2CC1CC1)[C@H]3O5 in your answer.
Result string: 7.89

---

Values of pKi reported for Mu-type opioid receptor (Rattus norvegicus) appear below.
# pKi = -log10(concentration in molar units)

Some entries whose results are on file:
* CN1CC[C@]23c4c5ccc(O)c4O[C@H]2c2[nH]c4ccc(N=C(N)N)cc4c2C[C@@]3(O)C1C5 | 6.06
* CN(C)Cc1ccc2[nH]c3c(c2c1)C[C@@]1(O)C2Cc4ccc(O)c5c4[C@@]1(CCN2CC1CC1)[C@H]3O5 | 7.44
* N=C(N)NCCc1ccc2[nH]c3c(c2c1)C[C@@]1(O)[C@H]2Cc4ccc(O)c5c4[C@@]1(CCN2CC1CC1)[C@H]3O5 | 7.48
* N=C(N)c1ccc2[nH]c3c(c2c1)C[C@@]1(O)C2Cc4ccc(O)c5c4[C@@]1(CCN2CC1CC1)[C@H]3O5 | 7.18
* N=C(N)Cc1ccc2[nH]c3c(c2c1)C[C@@]1(O)C2Cc4ccc(O)c5c4[C@@]1(CCN2CC1CC1)[C@H]3O5 | 7.39

Query string: Kindly indicate its recorded pKi. Item: N#CN=C(N)Nc1ccc2[nH]c3c(c2c1)C[C@@]1(O)C2Cc4ccc(O)c5c4[C@@]1(CCN2CC1CC1)[C@H]3O5
Result string: 7.05

Query string: Item N=C(N)NCc1ccc2[nH]c3c(c2c1)C[C@@]1(O)[C@H]2Cc4ccc(O)c5c4[C@@]1(CCN2CC1CC1)[C@H]3O5 : provide pKi
Result string: 7.18

---

# target_desc: Opioid receptors; mu & kappa (Homo sapiens) (UniProt P41145+P35372)
# measurement_protocol: Selectivity ratio, ratio of binding affinity of mu to kappa opioid receptor
# Type: protein assay
assay_readout: Ratio
Enter the number alone.

A selection of reference data follows.
• CN(C)Cc1ccc2[nH]c3c(c2c1)C[C@@]1(O)C2Cc4ccc(O)c5c4[C@@]1(CCN2CC1CC1)[C@H]3O5 = 44
• N=C(N)/N=C(\N)Nc1ccc2[nH]c3c(c2c1)C[C@@]1(O)C2Cc4ccc(O)c5c4[C@@]1(CCN2CC1CC1)[C@H]3O5 = 95
• CN1CC[C@]23c4c5ccc(O)c4O[C@H]2c2[nH]c4ccc(NC(=N)N)cc4c2C[C@@]3(O)C1C5 = 310
• N=C(N)Nc1ccc2[nH]c3c(c2c1)C[C@@]1(O)[C@H]2Cc4ccc(O)c5c4[C@@]1(CCN2CC1CC1)[C@H]3O5 = 125
• C[N+](C)(C)Cc1ccc2[nH]c3c(c2c1)C[C@@]1(O)C2Cc4ccc(O)c5c4[C@@]1(CCN2CC1CC1)[C@H]3O5 = 36

Query string: Provide only the value of recorded Ratio for N=C(N)NCc1ccc2[nH]c3c(c2c1)C[C@@]1(O)[C@H]2Cc4ccc(O)c5c4[C@@]1(CCN2CC1CC1)[C@H]3O5
Result string: 89

Query string: Item N=C(N)NCCc1ccc2[nH]c3c(c2c1)C[C@@]1(O)[C@H]2Cc4ccc(O)c5c4[C@@]1(CCN2CC1CC1)[C@H]3O5 : provide Ratio
Result string: 66

Query string: Recall and state the measured Ratio for N#CN/C(N)=N/c1ccc2[nH]c3c(c2c1)C[C@@]1(O)C2Cc4ccc(O)c5c4[C@@]1(CCN2CC1CC1)[C@H]3O5 .
Result string: 20

---

# target_desc: Delta-type opioid receptor (Mus musculus) (UniProt P32300)
# Sequence (P32300 whole entry): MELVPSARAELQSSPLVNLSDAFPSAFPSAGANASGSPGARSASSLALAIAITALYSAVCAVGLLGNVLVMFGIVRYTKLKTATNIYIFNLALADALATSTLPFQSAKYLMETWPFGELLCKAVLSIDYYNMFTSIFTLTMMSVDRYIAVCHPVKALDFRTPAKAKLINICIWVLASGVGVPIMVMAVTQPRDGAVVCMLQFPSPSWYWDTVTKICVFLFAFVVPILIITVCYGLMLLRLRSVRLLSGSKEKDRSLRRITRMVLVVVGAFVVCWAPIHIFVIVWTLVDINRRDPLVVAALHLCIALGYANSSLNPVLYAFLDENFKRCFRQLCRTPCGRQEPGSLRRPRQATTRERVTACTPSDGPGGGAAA
# measurement_protocol: Ratio of the IC50 of delta receptor agonist, [D-Ala-2, D-Leu5]-enkephalin in the presence of compound in MVD divided by the control IC50.
# Type: functional
Property: IC50 ratio; scope: individual compounds
Note: the reply should be a number with no unit written.

• N=C(N)Cc1ccc2[nH]c3c(c2c1)C[C@@]1(O)C2Cc4ccc(O)c5c4[C@@]1(CCN2CC1CC1)[C@H]3O5 = 1.8

Query string: Tell me IC50 ratio reported for C[N+](C)(C)c1ccc2[nH]c3c(c2c1)C[C@@]1(O)C2Cc4ccc(O)c5c4[C@@]1(CCN2CC1CC1)[C@H]3O5
Result string: 3.6

Query string: Retrieve IC50 ratio measured for N=C(N)NCc1ccc2[nH]c3c(c2c1)C[C@@]1(O)[C@H]2Cc4ccc(O)c5c4[C@@]1(CCN2CC1CC1)[C@H]3O5 and print it.
Result string: 0.88

---

# measurement_protocol: Selectivity ratio, ratio of Ke value of mu to kappa opioid receptor
Here, each record is paired with measured Ratio data.
Give your answer as a number; write no unit.

# example entries with known answers
- CC(=N)Nc1ccc2[nH]c3c(c2c1)C[C@@]1(O)C2Cc4ccc(O)c5c4[C@@]1(CCN2CC1CC1)[C@H]3O5: 15
- CN(C)c1ccc2[nH]c3c(c2c1)C[C@@]1(O)C2Cc4ccc(O)c5c4[C@@]1(CCN2CC1CC1)[C@H]3O5: 5.3

Kindly consider the entry below.
Query string: Return Ratio for the following compound: N/C(S)=N/c1ccc2[nH]c3c(c2c1)C[C@@]1(O)C2Cc4ccc(O)c5c4[C@@]1(CCN2CC1CC1)[C@H]3O5
Result string: 5.3

---

# target_desc: Kappa-type opioid receptor (Cavia porcellus) (UniProt P41144)
# Sequence (P41144 whole entry): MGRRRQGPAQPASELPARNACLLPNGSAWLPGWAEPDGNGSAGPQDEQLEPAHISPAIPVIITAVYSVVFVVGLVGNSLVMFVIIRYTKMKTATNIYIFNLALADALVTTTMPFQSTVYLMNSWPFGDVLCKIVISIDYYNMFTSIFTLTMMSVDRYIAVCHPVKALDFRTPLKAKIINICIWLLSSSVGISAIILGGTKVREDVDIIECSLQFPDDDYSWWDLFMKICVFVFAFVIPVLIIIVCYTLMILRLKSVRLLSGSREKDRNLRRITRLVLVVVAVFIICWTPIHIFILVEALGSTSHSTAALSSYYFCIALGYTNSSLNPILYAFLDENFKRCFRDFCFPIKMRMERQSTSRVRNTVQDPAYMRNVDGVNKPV
# measurement_protocol: Opioid receptor kappa 1 Antagonism (100 nM) is expressed as (Ke = [antagonist] / (IC50 ratio -1)
# Assay type: functional
The entries below come with measured Ke values attached.
Respond with the bare value in nM.

A selection of reference data follows.
* CN1CC[C@]23c4c5ccc(O)c4O[C@H]2c2[nH]c4ccc(NC(=N)N)cc4c2C[C@@]3(O)C1C5 | 17
* N#CN/C(N)=N/Cc1ccc2[nH]c3c(c2c1)C[C@@]1(O)C2Cc4ccc(O)c5c4[C@@]1(CCN2CC1CC1)[C@H]3O5 | 2.9
* NCCc1ccc2[nH]c3c(c2c1)C[C@@]1(O)C2Cc4ccc(O)c5c4[C@@]1(CCN2CC1CC1)[C@H]3O5 | 2.1
* CN(C)Cc1ccc2[nH]c3c(c2c1)C[C@@]1(O)C2Cc4ccc(O)c5c4[C@@]1(CCN2CC1CC1)[C@H]3O5 | 0.8
* CN(C)CCc1ccc2[nH]c3c(c2c1)C[C@@]1(O)C2Cc4ccc(O)c5c4[C@@]1(CCN2CC1CC1)[C@H]3O5 | 3.2
* C[N+](C)(C)CCc1ccc2[nH]c3c(c2c1)C[C@@]1(O)C2Cc4ccc(O)c5c4[C@@]1(CCN2CC1CC1)[C@H]3O5 | 0.4
* CN(C)c1ccc2[nH]c3c(c2c1)C[C@@]1(O)C2Cc4ccc(O)c5c4[C@@]1(CCN2CC1CC1)[C@H]3O5 | 6.8
* N=C(N)c1ccc2[nH]c3c(c2c1)C[C@@]1(O)C2Cc4ccc(O)c5c4[C@@]1(CCN2CC1CC1)[C@H]3O5 | 0.7
* N=C(N)NCc1ccc2[nH]c3c(c2c1)C[C@@]1(O)[C@H]2Cc4ccc(O)c5c4[C@@]1(CCN2CC1CC1)[C@H]3O5 | 0.6
* N=C(N)Cc1ccc2[nH]c3c(c2c1)C[C@@]1(O)C2Cc4ccc(O)c5c4[C@@]1(CCN2CC1CC1)[C@H]3O5 | 2.2

Query string: Using known records, supply Ke for CC(=N)NCCc1ccc2[nH]c3c(c2c1)C[C@@]1(O)C2Cc4ccc(O)c5c4[C@@]1(CCN2CC1CC1)[C@H]3O5
Result string: 0.3

Query string: Supply measured Ke of CSC(=N)Nc1ccc2[nH]c3c(c2c1)C[C@@]1(O)C2Cc4ccc(O)c5c4[C@@]1(CCN2CC1CC1)[C@H]3O5 in your reply.
Result string: 0.5

Query string: Provide only the value of recorded Ke for C[N+](C)(C)Cc1ccc2[nH]c3c(c2c1)C[C@@]1(O)C2Cc4ccc(O)c5c4[C@@]1(CCN2CC1CC1)[C@H]3O5
Result string: 0.7

Query string: Read off the recorded Ke for N=C(N)NCCc1ccc2[nH]c3c(c2c1)C[C@@]1(O)[C@H]2Cc4ccc(O)c5c4[C@@]1(CCN2CC1CC1)[C@H]3O5
Result string: 1.7

Query string: Tell me Ke reported for CC(=N)Nc1ccc2[nH]c3c(c2c1)C[C@@]1(O)C2Cc4ccc(O)c5c4[C@@]1(CCN2CC1CC1)[C@H]3O5
Result string: 1
